Quick reference: pIC50 of the listed items.
target: T1, human OT7T175 (metastin receptor) (human, UniProt Q969F8 1-398); test: FMAT competition with Cy-5-labeled metastin (40-54), hOT7T175-expressed CHO cells
T1 construct: expressed on CHO cells (hOT7T175-expressed CHO cells; hOT7T175/CHO); also called hOT7T175; h0T7T175
T1 sequence (Q969F8 whole entry L364H): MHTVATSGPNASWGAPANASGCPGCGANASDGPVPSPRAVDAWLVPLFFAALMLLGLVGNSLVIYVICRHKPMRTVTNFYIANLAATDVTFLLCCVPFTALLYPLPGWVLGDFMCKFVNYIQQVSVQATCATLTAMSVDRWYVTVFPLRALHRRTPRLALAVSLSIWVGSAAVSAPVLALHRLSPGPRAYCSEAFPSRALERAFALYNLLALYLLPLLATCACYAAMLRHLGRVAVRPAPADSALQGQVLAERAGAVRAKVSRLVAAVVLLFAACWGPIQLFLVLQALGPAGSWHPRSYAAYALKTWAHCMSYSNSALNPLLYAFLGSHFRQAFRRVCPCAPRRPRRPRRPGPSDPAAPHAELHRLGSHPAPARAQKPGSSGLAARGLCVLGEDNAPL
pIC50: −log10 of the molar value. Square brackets hold non-standard residues; d marks the D form. Ends that are not written are not given here. Phe(3,4-Cl2) = N[C@@H](Cc1ccc(Cl)c(Cl)c1)C(=O)O; Arg(Me) = CNC(=N)NCCC[C@H](N)C(=O)O; 2Pal = N[C@@H](Cc1ccccn1)C(=O)O; azaGly = NNC(=O)O
REPORTED ENDPOINT: pIC50

>>> result("YNWNSYGLRF-NH2 [Compound No. 150: [Tyr6]MS10]")
6.49
>>> result("[dY]N[2Pal]NSF[azaGly]L[Arg(Me)]F-NH2 (N-terminus assumed; SMILES CNC(=N)NCCC[C@H](NC(=O)[C@H](CC(C)C)NC(=O)NNC(=O)[C@H](Cc1ccccc1)NC(=O)[C@H](CO)NC(=O)[C@H](CC(N)=O)NC(=O)[C@H](Cc1ccccn1)NC(=O)[C@H](CC(N)=O)NC(=O)[C@H](N)Cc1ccc(O)cc1)C(=O)N[C@@H](Cc1ccccc1)C(N)=O) [Compound No. 285: [D-Tyr1,Pya(2) 3,AzaGly7,Arg(Me)9]MS10]")
7.40
>>> result("YNWNSFGLR[Phe(3,4-Cl2)]-NH2 [Compound No. 199: [Phe(3,4Cl2)10]MS10]")
6.33
>>> result("Ac-WNSF[azaGly]L[Arg(Me)]F-NH2 (SMILES CNC(=N)NCCC[C@H](NC(=O)[C@H](CC(C)C)NC(=O)NNC(=O)[C@H](Cc1ccccc1)NC(=O)[C@H](CO)NC(=O)[C@H](CC(N)=O)NC(=O)[C@H](Cc1c[nH]c2ccccc12)NC(C)=O)C(=O)N[C@@H](Cc1ccccc1)C(N)=O) [Compound No. 272: des(1-2)-Acetyl-[AzaGly7,Arg(Me)9]MS10]")
6.27
